This collection of values is drawn from PubChem BioAssay.

- EXPERIMENT: RAM signaling pathway blockade in yeast – S. cerevisiae, Pdr1DBD-CYC8 efflux-inhibited sensitized strain, primary screen (AID 1298);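 note: 0% = DMSO untreated cells without growth and 100% = 10 µM 1-NA-PP1 full growth; higher means more yeast growth rescued from 5-FOA killing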
- CONDITION NOTES: S. cerevisiae cbk1-as DSE1-URA3 strain, 5-FOA growth OD615, 2 d; at 50 µM; active compounds read high
MEASURED ATTRIBUTE: RAM network inhibition (%)
Supply the numeric figure in %, leaving out any unit text.

Return the recorded RAM network inhibition value; entry: "Cc1cc(Nc2ccc(F)cc2)n2nc(C)nc2n1"
0.55

Return the recorded RAM network inhibition value; entry: "COCCCNc1oc(-c2ccccc2F)nc1C#N"
0.89

Return the recorded RAM network inhibition value; entry: Cc1ccc(C2CC(c3ccccc3C)n3nc(N)nc3N2)cc1 (stereo not drawn)
4.75

Return the recorded RAM network inhibition value; entry: "CC(C)n1c(SCCCc2ccccc2)nc2c1c(=O)[nH]c(=O)n2C"
8.85

Return the recorded RAM network inhibition value; entry: "Cc1ccc(S(=O)(=O)Nc2nc(C)cc(NCCN)n2)cc1"
2.5

Return the recorded RAM network inhibition value; entry: CC(=O)C1C(c2ccc(O)cc2)NC(=O)NC1(O)C(F)(F)F (stereo not drawn)
4.56

Return the recorded RAM network inhibition value; entry: "CC(=O)c1c(C(C)=O)c(C)n(-c2nc(-c3ccccc3)c(C)s2)c1C"
4.01

Return the recorded RAM network inhibition value; entry: "CCOC(=O)N1CCN(C(=O)CN(c2cccc(C)c2)S(=O)(=O)c2ccccc2)CC1"
0.62

Return the recorded RAM network inhibition value; entry: "CCOc1ccccc1NC(=O)CSc1ccccc1"
2.06

Return the recorded RAM network inhibition value; entry: "CN1CCc2c(sc3nc(SCC(=O)N4CCOCC4)nc(N)c23)C1"
5.05

Return the recorded RAM network inhibition value; entry: "C=CCNc1nc2c(c(=O)[nH]c(=O)n2C)n1Cc1cccc(C)c1"
5.89

Return the recorded RAM network inhibition value; entry: COc1ccc(N2CSC3=C(C#N)C(c4cccc(OC)c4OC)CC(=O)N3C2)cc1 (stereo not drawn)
3.83

Return the recorded RAM network inhibition value; entry: CCC(C)N1C(=O)CCC1C(=O)NCc1ccc2c(c1)OCO2 (stereo not drawn)
4.46

Return the recorded RAM network inhibition value; entry: "O=C(c1ccc(CN2CCOCC2)cc1)N1CCC(Cc2ccccc2)CC1"
9.1

Return the recorded RAM network inhibition value; entry: "Cc1cccn2c(=O)c(C=NCc3ccco3)c(Nc3ccc(Cl)cc3)nc12"
1.21

Return the recorded RAM network inhibition value; entry: "C=C(C)Cn1c(CCCNC(=O)CC)nc2ccccc21"
-0.92

Return the recorded RAM network inhibition value; entry: "O=C(Nc1ccc(Cl)cc1)N(Cc1cccs1)Cc1cccs1"
8.73

Return the recorded RAM network inhibition value; entry: Cc1noc(/C=C/N(C)C)c1S(=O)(=O)N1CCCC(C(=O)NCc2ccco2)C1 (stereo not drawn)
4.7

Return the recorded RAM network inhibition value; entry: "CC1(C)CC(=O)C=C(NCCCNC2CCCCC2)C1"
1.72

Return the recorded RAM network inhibition value; entry: "COc1cc(S(=O)(=O)N2CCN(Cc3ccc4c(c3)OCO4)CC2)c(C)cc1C"
5.84

Return the recorded RAM network inhibition value; entry: "CCN(CC)S(=O)(=O)c1ccc(C(=O)OCC(=O)N2CCN(C(=O)c3ccco3)CC2)cc1"
1.24

Return the recorded RAM network inhibition value; entry: "COc1ccc(NC2=NCC(=O)N2c2ccccc2)c(OC)c1"
5.45

Return the recorded RAM network inhibition value; entry: CCOC(=O)C1CCCN(C(=O)CNC(=O)Cn2ccc3ccccc3c2=O)C1 (stereo not drawn)
4.63

Return the recorded RAM network inhibition value; entry: "CN(C)/C=N/c1c(C#N)cnn1-c1ccccc1"
4.32

Return the recorded RAM network inhibition value; entry: "CCc1ccccc1NC(=O)c1cc(-c2cccc(O)c2)on1"
8.2

Return the recorded RAM network inhibition value; entry: COc1ccccc1NC(=O)C1C2C=CC3(CN(Cc4cccnc4)C(=O)C13)O2 (stereo not drawn)
-0.51

Return the recorded RAM network inhibition value; entry: "COc1ccc(-n2nnc3c(=O)n(CC(=O)N4CCCc5ccccc54)cnc32)cc1"
1.61

Return the recorded RAM network inhibition value; entry: CC(=O)c1ccc(OCC(O)CN2CCOCC2)cc1 (stereo not drawn)
0.84

Return the recorded RAM network inhibition value; entry: "Cc1cc(NC(=O)CSc2ccc3nnc(-c4ccccn4)n3n2)no1"
1.71

Return the recorded RAM network inhibition value; entry: "N=c1c2c3c(sc2nc2n1CCCCC2)CCCCC3"
5.69

Return the recorded RAM network inhibition value; entry: COc1ccc(-c2nc(CS(=O)CC(=O)NCc3ccco3)c(C)o2)cc1OC (stereo not drawn)
4.18

Return the recorded RAM network inhibition value; entry: "O=c1c2c(nc3c(-c4ccccc4)c[nH]n13)CCCC2"
0.27

Return the recorded RAM network inhibition value; entry: "Cc1ccc(C(=O)N2CCN(C)CC2)cc1S(=O)(=O)N1CCCCC1"
0.57

Return the recorded RAM network inhibition value; entry: CN(CC1CCCO1)S(=O)(=O)c1ccc(C(=O)Nc2nc3cc4c(cc3s2)OCO4)cc1 (stereo not drawn)
4.04

Return the recorded RAM network inhibition value; entry: "Cc1cccc(N2CCN(C(=O)c3cc4c(=O)n(C)c5ccccc5c4n3C)CC2)c1C"
1.49

Return the recorded RAM network inhibition value; entry: "Cc1cc(Nc2ccc(Br)cc2F)n2nc(C)nc2n1"
-0.15

Return the recorded RAM network inhibition value; entry: "O=S(=O)(NCCc1csc(-c2cccnc2)n1)c1ccc(Cl)s1"
3.12

Return the recorded RAM network inhibition value; entry: "Cc1nnc(NC(=O)CSc2nnc(Cc3cccn3C)n2-c2cccc(C(F)(F)F)c2)s1"
3.85
